- study-system: binding of human von Willebrand factor to europium (Eu)-chelate-labeled chimeric GPIb-Fc protein (Homo sapiens, UniProt P04275+P07359)
- Sequence (P04275 764-2813 limits assumed, change not shown): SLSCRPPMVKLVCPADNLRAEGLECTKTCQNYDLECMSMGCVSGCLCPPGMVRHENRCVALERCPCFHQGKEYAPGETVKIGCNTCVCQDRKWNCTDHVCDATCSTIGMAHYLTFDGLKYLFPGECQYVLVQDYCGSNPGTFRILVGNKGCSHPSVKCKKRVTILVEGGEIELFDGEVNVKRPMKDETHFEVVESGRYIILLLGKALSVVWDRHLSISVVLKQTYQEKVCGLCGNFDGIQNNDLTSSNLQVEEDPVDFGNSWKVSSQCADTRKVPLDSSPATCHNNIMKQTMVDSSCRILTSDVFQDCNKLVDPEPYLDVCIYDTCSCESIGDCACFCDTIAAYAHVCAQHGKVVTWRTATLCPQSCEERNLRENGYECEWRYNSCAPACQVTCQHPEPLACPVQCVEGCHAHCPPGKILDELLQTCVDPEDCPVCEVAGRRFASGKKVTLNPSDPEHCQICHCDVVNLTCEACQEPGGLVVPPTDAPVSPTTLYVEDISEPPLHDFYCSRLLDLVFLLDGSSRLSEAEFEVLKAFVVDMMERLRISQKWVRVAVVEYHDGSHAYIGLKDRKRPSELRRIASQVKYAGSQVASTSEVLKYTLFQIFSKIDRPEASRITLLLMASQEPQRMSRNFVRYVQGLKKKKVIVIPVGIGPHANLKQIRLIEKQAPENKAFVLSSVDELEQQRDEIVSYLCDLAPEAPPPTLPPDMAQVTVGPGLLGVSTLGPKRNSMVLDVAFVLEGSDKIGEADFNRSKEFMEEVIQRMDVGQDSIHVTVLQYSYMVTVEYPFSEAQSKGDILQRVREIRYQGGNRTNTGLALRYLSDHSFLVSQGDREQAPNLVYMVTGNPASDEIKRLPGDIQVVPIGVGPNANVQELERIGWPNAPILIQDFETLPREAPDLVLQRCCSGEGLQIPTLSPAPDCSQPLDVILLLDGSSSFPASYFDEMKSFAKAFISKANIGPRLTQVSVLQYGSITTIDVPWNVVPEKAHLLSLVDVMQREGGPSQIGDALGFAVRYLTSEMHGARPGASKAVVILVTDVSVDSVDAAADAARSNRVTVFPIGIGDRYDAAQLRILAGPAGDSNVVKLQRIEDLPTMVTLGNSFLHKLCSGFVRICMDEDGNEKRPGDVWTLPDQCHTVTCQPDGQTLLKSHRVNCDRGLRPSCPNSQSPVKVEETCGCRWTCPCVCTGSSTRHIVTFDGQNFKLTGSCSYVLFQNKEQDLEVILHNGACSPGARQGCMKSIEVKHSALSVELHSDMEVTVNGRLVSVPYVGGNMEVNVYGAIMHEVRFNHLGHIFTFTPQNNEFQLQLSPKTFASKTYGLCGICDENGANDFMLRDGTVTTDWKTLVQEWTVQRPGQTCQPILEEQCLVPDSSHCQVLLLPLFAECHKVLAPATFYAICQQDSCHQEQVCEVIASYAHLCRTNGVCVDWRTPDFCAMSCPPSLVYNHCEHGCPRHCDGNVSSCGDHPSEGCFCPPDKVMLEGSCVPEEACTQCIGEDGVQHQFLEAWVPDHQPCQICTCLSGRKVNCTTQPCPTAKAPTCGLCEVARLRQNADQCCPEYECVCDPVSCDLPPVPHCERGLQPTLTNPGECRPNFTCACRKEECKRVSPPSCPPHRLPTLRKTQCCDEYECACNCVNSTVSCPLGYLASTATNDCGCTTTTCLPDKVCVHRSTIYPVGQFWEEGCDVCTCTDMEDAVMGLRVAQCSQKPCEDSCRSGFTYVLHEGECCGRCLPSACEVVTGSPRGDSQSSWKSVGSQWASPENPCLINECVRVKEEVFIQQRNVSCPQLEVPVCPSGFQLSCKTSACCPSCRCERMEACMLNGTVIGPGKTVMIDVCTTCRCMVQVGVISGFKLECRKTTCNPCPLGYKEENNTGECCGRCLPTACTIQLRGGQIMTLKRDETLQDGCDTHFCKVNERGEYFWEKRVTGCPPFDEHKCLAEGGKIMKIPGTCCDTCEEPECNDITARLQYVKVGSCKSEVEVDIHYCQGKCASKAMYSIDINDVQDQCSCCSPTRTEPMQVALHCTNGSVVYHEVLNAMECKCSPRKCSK
- Sequence (P07359 17-335 limits assumed, change not shown): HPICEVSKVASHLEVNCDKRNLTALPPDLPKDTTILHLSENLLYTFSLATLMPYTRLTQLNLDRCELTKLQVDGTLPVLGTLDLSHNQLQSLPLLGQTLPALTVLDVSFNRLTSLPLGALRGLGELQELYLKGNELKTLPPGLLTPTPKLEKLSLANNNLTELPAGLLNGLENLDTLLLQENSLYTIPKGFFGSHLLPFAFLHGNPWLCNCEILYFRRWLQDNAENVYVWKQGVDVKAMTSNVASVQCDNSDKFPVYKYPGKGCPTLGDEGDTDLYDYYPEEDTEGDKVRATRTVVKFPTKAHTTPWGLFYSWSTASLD
- assay-remarks: Von Willebrand Factor-GPIb Binding Assay (Eu based, botrocetin-induced)
- study-conditions: botrocetin-induced binding of Eu-chelate-labeled chimeric GPIb-Fc to immobilized human vWF; IC50 values as specified in the examples
- Text: Activity of compounds of the formula I was shown by an Eu based binding assay in which the binding of human von Willebrand factor to an europium (Eu)-chelate-labeled chimeric GPIb-Fc protein was induced by botrocetin. The preparation of the Eu-chelate-labeled chimeric GPIb-Fc protein is described in detail in a patent application (Fukuchi et al., EP1074564). […]
property-label: IC50 (µM)

Reference set (2 entries):
chemical-structure: Cc1cc(N)c2cc(C(=O)Nc3ccc(NC(=O)c4cncc(Br)c4)cc3)ccc2n1
property-label: IC50
endpoint-value: 20.9

chemical-structure: Cc1cc(N)c2cc(C(=O)Nc3ccc(NC(=O)c4cnc(Cl)c(Cl)c4)cc3)ccc2n1
property-label: IC50
endpoint-value: 22.9

1 = Cc1cc(N)c2cc(C(=O)Nc3ccc(NC(=O)c4nccnc4N)cc3)ccc2n1
2 = Cc1cc(N)c2cc(C(=O)Nc3ccc(NC(=O)c4ccc(OC5CCNCC5)cc4)cc3)ccc2n1
Look at 1 and 2 . Which one has the lower recorded IC50 number? I would appreciate it if you answered with the label of your choice.
1
(1: 4.41 µM, 2: 19.8 µM)

----------
- study-system: binding of human von Willebrand factor to europium (Eu)-chelate-labeled chimeric GPIb-Fc protein (Homo sapiens, UniProt P04275+P07359)
- assay-remarks: Von Willebrand Factor-GPIb Binding Assay (Eu based, botrocetin-induced)
- study-conditions: botrocetin-induced binding of Eu-chelate-labeled chimeric GPIb-Fc to immobilized human vWF; IC50 values as specified in the examples
property-label: IC50 (µM)

Reference set (3 entries):
compound: Cc1cc(NCc2ccc(NC(=O)c3ccc4nc(C)cc(N)c4c3)cc2)nc(N)n1 [Example 10]
IC50 (µM): 68.6
//
compound: Cc1cc(N)c2cc(C(=O)Nc3ccc(CNC(=O)c4ccc(Cl)nc4)cc3)ccc2n1 [Example 11]
IC50 (µM): 42.9
//
compound: Cc1cc(N)c2cc(C(=O)Nc3ccc(CNc4ccc5cn[nH]c5c4)cc3)ccc2n1 [Example 37]
IC50 (µM): 2.56

A = Cc1cc(N)c2cc(C(=O)Nc3ccc(NC(=O)c4cccnc4N)cc3)ccc2n1 [Example 21]
B = COc1cc(NC(=O)c2ccc3nc(N)ccc3c2)ccc1NC(=O)c1ccc2nc(C)cc(N)c2c1 [Example 34]
Look at A and B . Which one has the lower recorded IC50 number? I would appreciate it if you answered with the label of your choice.
B
(B: 3.61 µM, A: 34.4 µM)

a = Cc1cc(N)c2cc(C(=O)Nc3ccc(NC(=O)c4ccc5[nH]cnc5c4)cc3)ccc2n1 [Example 32]
b = Cc1cc(NCCC(=O)Nc2ccc3nc(C)cc(N)c3c2)nc(N)n1 [Example 1]
c = Cc1cc(N)c2cc(C(=O)Nc3ccc(NC(=O)c4cccnc4)cc3)ccc2n1 [Example 17]
Could you please sort these 3 entries by IC50 from high to low? Reply with the labels, ordered as the question asks.
b, c, a

----------
- study-system: binding of human von Willebrand factor to europium (Eu)-chelate-labeled chimeric GPIb-Fc protein (Homo sapiens, UniProt P04275+P07359)
- assay-remarks: Von Willebrand Factor-GPIb Binding Assay (Eu based, botrocetin-induced)
- study-conditions: botrocetin-induced binding of Eu-chelate-labeled chimeric GPIb-Fc to immobilized human vWF; IC50 values as specified in the examples
pIC50: −log10 of the molar value.
property-label: pIC50

Reference set (10 entries):
compound: Cc1cc(N)c2cc(C(=O)Nc3ccc(CNC(=O)c4nccnc4N)cc3)ccc2n1
property-label: pIC50
endpoint-value: 4.26
//
compound: Cc1cc(N)c2cc(C(=O)Nc3ccc(NC(=O)c4ccc5[nH]c(N)nc5c4)cc3)ccc2n1
property-label: pIC50
endpoint-value: 5.39
//
compound: Cc1cc(N)c2cc(C(=O)Nc3ccc(Nc4cc(C)[n+](C)c(N)n4)cc3)ccc2n1
property-label: pIC50
endpoint-value: 5.12
//
compound: Cc1cc(N)c2cc(C(=O)Nc3ccc(NC(=O)c4ccc(O)nc4)cc3)ccc2n1
property-label: pIC50
endpoint-value: 4.38
//
compound: Cc1cc(N)c2cc(C(=O)Nc3ccc(NC(=O)c4ccc5nc(C)cc(N)c5c4)cc3)ccc2n1
property-label: pIC50
endpoint-value: 5.80
//
compound: Cc1cc(N)c2cc(C(=O)Nc3ccc(NC(=O)c4ccccn4)cc3)ccc2n1
property-label: pIC50
endpoint-value: 4.36
//
compound: Cc1cc(N)c2cc(C(=O)Nc3ccc(CNC(=O)c4ccnc(Cl)c4)cc3)ccc2n1
property-label: pIC50
endpoint-value: 4.05
//
compound: Cc1cc(N)c2cc(NC(=O)c3ccc(CNC(=O)c4cncc(N5CCCC5)n4)cc3)ccc2n1
property-label: pIC50
endpoint-value: 4.32
//
compound: Cc1cc(N)c2cc(C(=O)Nc3ccc(NC(=O)c4ccc5nc(N)sc5c4)cc3)ccc2n1
property-label: pIC50
endpoint-value: 5.54
//
compound: Cc1cc(N)c2cc(NC(=O)c3ccc(CNC(=O)c4ccc(N)nc4)cc3)ccc2n1
property-label: pIC50
endpoint-value: 4.05

P = Cc1cc(N)c2cc(C(=O)Nc3ccc(CNC(=O)c4ccccn4)cc3)ccc2n1
Q = Cc1cc(N)c2cc(C(=O)NC3CCC(NC(=O)c4ccc5nc(N)sc5c4)CC3)ccc2n1 (centres unmarked)
R = Cc1cc(N)c2cc(C(=O)Nc3ccc(NC(=O)c4cnccn4)cc3)ccc2n1
Could you please sort these 3 entries by pIC50 from high to low? Reply with the labels, ordered as the question asks.
R, Q, P

----------
- study-system: binding of human von Willebrand factor to europium (Eu)-chelate-labeled chimeric GPIb-Fc protein (Homo sapiens, UniProt P04275+P07359)
- assay-remarks: Von Willebrand Factor-GPIb Binding Assay (Eu based, botrocetin-induced)
- study-conditions: botrocetin-induced binding of Eu-chelate-labeled chimeric GPIb-Fc to immobilized human vWF; IC50 values as specified in the examples
pIC50: −log10 of the molar value.
property-label: pIC50

Reference set (2 entries):
chemical-structure: Cc1cc(N)c2cc(NC(=O)c3ccc(CNc4cc(C)[n+](C)c(N)n4)cc3)ccc2n1
pIC50: 4.04

chemical-structure: Cc1cc(N)c2cc(C(=O)Nc3ccc(CNC(=O)c4cncc(Br)c4)cc3)ccc2n1
pIC50: 4.54

1 = Cc1cc(N)c2cc(C(=O)Nc3ccc(CNc4cc(C)[n+](C)c(N)n4)cc3)ccc2n1
2 = Cc1cc(N)c2cc(C(=O)Nc3cccc(Nc4cc(C)[n+](C)c(N)n4)c3)ccc2n1
3 = Cc1cc(N)c2cc(C(=O)Nc3ccc(NC(=O)c4ccc(Cl)c(S(N)(=O)=O)c4)cc3)ccc2n1
List by increasing pIC50. Reply with the labels, ordered as the question asks.
2, 3, 1
(2: 4.08, 3: 4.48, 1: 4.70)

----------
- study-system: binding of human von Willebrand factor to europium (Eu)-chelate-labeled chimeric GPIb-Fc protein (Homo sapiens, UniProt P04275+P07359)
- assay-remarks: Von Willebrand Factor-GPIb Binding Assay (Eu based, botrocetin-induced)
- study-conditions: botrocetin-induced binding of Eu-chelate-labeled chimeric GPIb-Fc to immobilized human vWF; IC50 values as specified in the examples
- From the text: Activity of compounds of the formula I was shown by an Eu based binding assay in which the binding of human von Willebrand factor to an europium (Eu)-chelate-labeled chimeric GPIb-Fc protein was induced by botrocetin. The preparation of the Eu-chelate-labeled chimeric GPIb-Fc protein is described in detail in a patent application (Fukuchi et al., EP1074564). […]
property-label: IC50 (µM)

P = Cc1cc(N)c2cc(NC(=O)c3ccc(CNC(=O)c4cnccn4)cc3)ccc2n1 [Example 4]
Q = Cc1cc(N)c2cc(C(=O)Nc3ccc(NC(=O)c4cccnc4Cl)cc3)ccc2n1 [Example 18]
R = Cc1cc(N)c2cc(C(=O)Nc3ccc(NC(=O)c4ccc5nc(N)ccc5c4)cc3)ccc2n1 [Example 33]
S = COc1cc(NC(=O)c2ccc3[nH]c(C)nc3c2)ccc1NC(=O)c1ccc2nc(C)cc(N)c2c1 [Example 35]
Sort the entries above by IC50, smallest first. Reply with the labels, ordered as the question asks.
R, S, Q, P
(R: 1.7 µM, S: 9.18 µM, Q: 52.6 µM, P: 75.5 µM)
